Test System: T1, human transferrin receptor (recombinant, for surface plasmon resonance) (human, UniProt P02786 89-760)
T1 construct: also called huTfR; human transferrin receptor-biotinylated
T1 sequence (P02786 89-760 limits assumed): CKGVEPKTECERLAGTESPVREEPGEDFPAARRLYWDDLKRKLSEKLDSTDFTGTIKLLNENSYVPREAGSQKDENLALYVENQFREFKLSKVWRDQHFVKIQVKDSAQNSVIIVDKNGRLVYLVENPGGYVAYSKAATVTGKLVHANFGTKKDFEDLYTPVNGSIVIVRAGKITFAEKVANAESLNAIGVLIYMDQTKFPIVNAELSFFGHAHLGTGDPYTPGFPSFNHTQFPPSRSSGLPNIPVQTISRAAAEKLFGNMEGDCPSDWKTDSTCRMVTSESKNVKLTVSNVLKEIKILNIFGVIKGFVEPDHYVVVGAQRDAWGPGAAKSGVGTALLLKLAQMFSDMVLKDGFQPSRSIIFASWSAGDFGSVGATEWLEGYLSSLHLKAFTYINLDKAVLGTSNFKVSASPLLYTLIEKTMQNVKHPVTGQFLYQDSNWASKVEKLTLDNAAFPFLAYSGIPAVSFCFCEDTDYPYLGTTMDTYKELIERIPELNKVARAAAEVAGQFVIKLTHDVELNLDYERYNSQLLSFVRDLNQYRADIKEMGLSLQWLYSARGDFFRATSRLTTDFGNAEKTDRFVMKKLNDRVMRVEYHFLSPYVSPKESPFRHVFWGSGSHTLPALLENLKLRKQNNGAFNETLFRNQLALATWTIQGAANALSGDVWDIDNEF
Assay Procedure: SPR 25C
Measurement Kind: koff (s⁻¹)

• 2/99 VH17/VL3 (antibody, V domains shown) VH: QQLQESGPGLVKPSETLSLTCTVSGFSLSSYAMSWVRQPPGKGLEWIGYIWSGGSTDYNPSLKSRVTISKDTSKNQVSLKLSSVTAADTAVYYCARRYGTSYPDYGDANGFDPWGPGTLVTVSS VL: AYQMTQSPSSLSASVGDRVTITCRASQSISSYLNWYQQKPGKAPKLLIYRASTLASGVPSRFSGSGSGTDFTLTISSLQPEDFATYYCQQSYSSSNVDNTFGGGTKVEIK = 0.000843
• 2/99 VH21/VL12 (antibody, V domains shown) VH: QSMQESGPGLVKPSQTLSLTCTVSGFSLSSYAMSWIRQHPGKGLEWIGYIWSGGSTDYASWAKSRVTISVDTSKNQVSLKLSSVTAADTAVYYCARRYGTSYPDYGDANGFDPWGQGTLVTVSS VL: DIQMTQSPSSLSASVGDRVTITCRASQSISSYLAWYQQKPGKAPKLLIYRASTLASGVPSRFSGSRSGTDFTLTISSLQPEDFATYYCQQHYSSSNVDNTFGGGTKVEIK = 0.00754
• 2/99 VH9/VL8 (antibody, V domains shown) VH: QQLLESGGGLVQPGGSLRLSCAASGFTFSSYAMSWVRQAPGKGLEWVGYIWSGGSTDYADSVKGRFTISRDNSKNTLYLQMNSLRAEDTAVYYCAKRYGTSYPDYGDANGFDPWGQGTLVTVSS VL: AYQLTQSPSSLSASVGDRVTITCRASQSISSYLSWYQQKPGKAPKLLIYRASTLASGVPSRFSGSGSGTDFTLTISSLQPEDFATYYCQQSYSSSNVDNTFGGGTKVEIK = 0.00523
